Tested on: A549 cells
Assay method text: Cytotoxicity against A549 cells, Alamar Blue
Format: cell-based
Test context: Homo sapiens, A549, 65 h; Supplementary Table 1; compound 0.5 mM; percentage of controls (n=1)

- Compound: "O=C(O)C1CCOCC1 [compound 92, tetrahydro‐2H‐pyran‐4‐carboxylic acid]"
  viability at 500 µM (%): 118
- Compound: "N#CCc1ccc(O)cc1 [compound 98, 2‐(4‐hydroxyphenyl)acetonitrile]"
  viability at 500 µM (%): 115
- Compound: "N#Cc1ccc(N2CCNCC2)cc1"
  viability at 500 µM (%): 84.7
- Compound: "O=C(O)c1nsc(Cl)c1Cl"
  viability at 500 µM (%): 68.2
- Compound: "OCc1ccccc1Oc1ccccc1"
  viability at 500 µM (%): 73.7
- Compound: "NCc1ccccc1Cl"
  viability at 500 µM (%): 90.4
- Compound: "O=C(O)CSCc1ccccc1"
  viability at 500 µM (%): 67.9
- Compound: "Cc1ccc(C(N)=O)cc1C [compound 177, 3,4‐dimethylbenzamide]"
  viability at 500 µM (%): 64.2
- Compound: "NCc1cccc(CN2CCCCC2)c1"
  viability at 500 µM (%): 126
- Compound: "COC(=O)c1ccc2ncccc2c1 [compound 515, methyl quinoline‐6‐carboxylate]"
  viability at 500 µM (%): 67.8
- Compound: "Nc1ccccc1CN1CCOCC1"
  viability at 500 µM (%): 104
- Compound: "CC(=O)c1nccs1"
  viability at 500 µM (%): 94.5
- Compound: "CC(=O)c1cc[nH]c1"
  viability at 500 µM (%): 121
- Compound: "Nc1cc(F)ccc1-n1ccnc1"
  viability at 500 µM (%): 100
- Compound: "N#CN1CCCC1"
  viability at 500 µM (%): 115
- Compound: "COc1ccccc1C1CCNCC1"
  viability at 500 µM (%): 63.7
- Compound: "Cc1cccc(N2CCNCC2)c1C"
  viability at 500 µM (%): 13.6
- Compound: "Cc1ccc(C(N)=O)c(N)c1 [compound 190, 2-amino-4-methylbenzamide]"
  viability at 500 µM (%): 106

====

System: A549 cells
Assay method text: Cytotoxicity against A549 cells, Alamar Blue
Format: cell-based
Test context: Homo sapiens, A549, 65 h; Supplementary Table 1; compound 0.5 mM; percentage of controls (n=1)
Measured viability at 500 µM of individual entries

- Molecule: "OCCc1ccc2c(c1)OCO2"
  Target: "A549 cells"
  viability at 500 µM / %: 138
- Molecule: "OCc1cccnc1N1CCCC1 [compound 440, [2‐(1‐pyrrolidinyl)‐3‐pyridinyl]methanol]"
  Target: "A549 cells"
  viability at 500 µM / %: 94
- Molecule: "OCc1ccc(-c2ccco2)s1 [compound 458, [5‐(2‐furyl)thien‐2‐yl]methanol]"
  Target: "A549 cells"
  viability at 500 µM / %: 73.6
- Molecule: "CC(=O)c1ccc(F)c(Cl)c1"
  Target: "A549 cells"
  viability at 500 µM / %: 58.8
- Molecule: "Cn1c(=O)cc(O)c2ccccc21"
  Target: "A549 cells"
  viability at 500 µM / %: 174
- Molecule: "O=C1CC(c2ccccc2)=NO1 [compound 272, 3-phenyl-4,5-dihydroisoxazol-5-one]"
  Target: "A549 cells"
  viability at 500 µM / %: 61.5
- Molecule: "OCc1csc(-c2cccnc2)n1"
  Target: "A549 cells"
  viability at 500 µM / %: 104
- Molecule: "Cc1[nH]c2ccc(C(=O)O)cc2c1C"
  Target: "A549 cells"
  viability at 500 µM / %: 74.5

====

Tested on: A549 cells
Assay method text: Cytotoxicity against A549 cells, Alamar Blue
Type: cell-based
Test context: Supplementary Table 1; compound 0.5 mM; percentage of controls (n=1)
Quantity kind: A549 Cells Alamar Blue

- Compound: "Cn1nc(-c2cccs2)cc1N"
  Measurement: "90.7 percentage of controls"
- Compound: "Nc1ccc2oc3c(c2c1)CCCC3"
  Measurement: "68.2 percentage of controls"
- Compound: "CCOC(=O)c1[nH]c(C)c(CC)c1C"
  Measurement: "59.9 percentage of controls"
- Compound: "CC(=O)c1ccc2c(c1)OCCO2"
  Measurement: "101.8 percentage of controls"
- Compound: "OCc1ccc(CN2CCCC2)cc1"
  Measurement: "110 percentage of controls"
- Compound: "OCc1cccc2c1OCCO2 [compound 322, 2,3‐dihydro‐1,4‐benzodioxin‐5‐ylmethanol]"
  Measurement: "96.4 percentage of controls"
- Compound: "O=C1COc2cc(O)ccc21 [compound 182, 6‐hydroxy‐2,3‐dihydrobenzo[b]furan‐3‐one]"
  Measurement: "65.6 percentage of controls"
- Compound: "Cc1nn(C)c2sc(CO)cc12"
  Measurement: "70.7 percentage of controls"
- Compound: "CC1(C)Cc2cccc(C(=O)O)c2O1"
  Measurement: "101.2 percentage of controls"
- Compound: "NCC1COc2ccccc2O1 (centres unmarked)"
  Measurement: "68.9 percentage of controls"
- Compound: "CN1N=C(C(F)(F)F)CC1=O"
  Measurement: "88.3 percentage of controls"
- Compound: "CC1(C)CC(=O)CC(C)(C)N1"
  Measurement: "61.9 percentage of controls"
- Compound: "CN(N)c1cc(C(F)(F)F)ccn1"
  Measurement: "96.1 percentage of controls"
- Compound: "Cn1nc(CO)cc1-c1ccccc1"
  Measurement: "64.6 percentage of controls"
- Compound: "COc1cc2c(cc1OC)C(C)=NCC2"
  Measurement: "77.7 percentage of controls"
- Compound: "Cc1c(CO)cnn1-c1ccccc1"
  Measurement: "57.2 percentage of controls"
- Compound: "CC1(C)Cc2cccc(CO)c2O1"
  Measurement: "51.1 percentage of controls"
- Compound: "Cc1cc(C(N)=S)n(C)n1"
  Measurement: "50.9 percentage of controls"
- Compound: "C#CCN1CCS(=O)(=O)CC1"
  Measurement: "154 percentage of controls"
- Compound: "c1ccc(-c2cn3c(n2)SCC3)cc1"
  Measurement: "109.1 percentage of controls"
- Compound: "OCC1COc2ccccc2O1 (centres unmarked) [compound 319, 2,3‐dihydro‐1,4‐benzodioxin‐2‐ylmethanol]"
  Measurement: "86.4 percentage of controls"
- Compound: "Cc1oc(-c2ccccc2)nc1CCO"
  Measurement: "104.4 percentage of controls"
- Compound: "CCOC(=O)c1sc(Cl)nc1C"
  Measurement: "60.5 percentage of controls"

====

Target: TbINO1 (Trypanosoma brucei brucei)
Sequence (Q5QQ46 whole entry): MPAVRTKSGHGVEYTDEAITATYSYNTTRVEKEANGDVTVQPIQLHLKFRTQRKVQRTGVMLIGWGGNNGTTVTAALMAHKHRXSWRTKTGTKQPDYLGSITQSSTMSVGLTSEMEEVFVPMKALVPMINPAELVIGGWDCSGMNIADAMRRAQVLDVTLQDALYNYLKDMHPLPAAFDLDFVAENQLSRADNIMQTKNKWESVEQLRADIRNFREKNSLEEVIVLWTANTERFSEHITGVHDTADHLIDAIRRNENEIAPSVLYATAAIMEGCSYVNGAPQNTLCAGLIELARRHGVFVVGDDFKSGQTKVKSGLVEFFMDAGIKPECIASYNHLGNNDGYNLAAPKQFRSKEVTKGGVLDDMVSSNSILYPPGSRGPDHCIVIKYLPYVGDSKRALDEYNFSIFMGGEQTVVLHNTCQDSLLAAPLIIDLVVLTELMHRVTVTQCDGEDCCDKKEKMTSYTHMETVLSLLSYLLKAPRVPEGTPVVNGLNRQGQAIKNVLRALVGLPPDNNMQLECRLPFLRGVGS
Assay method text: biochemical
Format: binding
Test context: read-out: Tb Ino1 Tm Shift [˚C]

- Compound: "Cc1ccc[nH]c1=O [compound 17, 3‐methyl‐1,2‐dihydropyridin‐2‐one]"
  ΔTm at 1000 µM (°C): 0.81
- Compound: "Cc1cc(C(=O)O)c(C(F)(F)F)o1"
  ΔTm at 1000 µM (°C): 0.06
- Compound: "COc1ccc(C#N)cn1"
  ΔTm at 1000 µM (°C): 0.38
- Compound: "Cc1cc(O)nc2ccccc12"
  ΔTm at 1000 µM (°C): 0.17
- Compound: "OCc1ccc(-c2ccccn2)s1 [compound 556, [5‐(2‐pyridinyl)‐2‐thienyl]methanol]"
  ΔTm at 1000 µM (°C): 0.19

====

Measured viability at 500 µM of individual entries
System: A549 cells
Assay method text: Cytotoxicity against A549 cells, Alamar Blue
Assay type: cell-based
Test context: Homo sapiens, A549, 65 h; Supplementary Table 1; compound 0.5 mM; percentage of controls (n=1)
Quantity kind: viability at 500 µM (%)

- Compound: "N#Cc1cc(N)ccc1-n1cccc1"
  Target: "A549 cells"
  Measurement: 81.4
- Compound: "OCc1ccc(Oc2ccccc2)o1"
  Target: "A549 cells"
  Measurement: 57.7
- Compound: "OCc1ccc2occc2c1"
  Target: "A549 cells"
  Measurement: 75.1
- Compound: "O=C(O)c1csc2ccccc12"
  Target: "A549 cells"
  Measurement: 55.1
- Compound: "Cc1occc1C(=O)O"
  Target: "A549 cells"
  Measurement: 110
- Compound: "O=C(O)c1cc2ccccc2[nH]1"
  Target: "A549 cells"
  Measurement: 67.3
- Compound: "O=C(O)CCc1ccccc1O [compound 323, 3‐(2‐hydroxyphenyl)propanoic acid]"
  Target: "A549 cells"
  Measurement: 110
- Compound: "COC(=O)c1cscc1N [compound 244, methyl 4‐aminothiophene‐3‐carboxylate]"
  Target: "A549 cells"
  Measurement: 90.3

====

Target: TbINO1 (Trypanosoma brucei brucei)
Assay method text: biochemical
Format: binding
Test context: read-out: Tb Ino1 Tm Shift [˚C]
Measured ΔTm at 1000 µM of individual entries

- Compound: "COC(=O)c1cccc2cc[nH]c12 [compound 396, methyl 1H‐indole‐7‐carboxylate]"
  ΔTm at 1000 µM (°C): 0.12
- Compound: "Nc1cccc(-c2ccsc2)c1"
  ΔTm at 1000 µM (°C): 0.17
- Compound: "O=C(O)Cc1coc2ccccc12 [compound 410, benzo[b]furan‐3‐ylacetic acid]"
  ΔTm at 1000 µM (°C): 0.8
- Compound: "NCc1ccc(-c2ccco2)cc1 [compound 373, [4‐(2‐furyl)phenyl]methylamine]"
  ΔTm at 1000 µM (°C): 0.48
- Compound: "Cc1cccc(CN)c1C"
  ΔTm at 1000 µM (°C): 0.12
- Compound: "NCc1ccc(C(F)(F)F)cc1"
  ΔTm at 1000 µM (°C): 0.38
- Compound: "O=C1CC(C(=O)O)c2ccccc21 (centres unmarked)"
  ΔTm at 1000 µM (°C): 0.03
- Compound: "Nc1ccc(F)cc1F"
  ΔTm at 1000 µM (°C): 1.11
- Compound: "N#Cc1cccc(N2CCCC2)c1"
  ΔTm at 1000 µM (°C): 0.05
- Compound: "Nc1ccc2c(c1)OCO2"
  ΔTm at 1000 µM (°C): 0.72
- Compound: "Nc1ccccc1-n1ccnc1"
  ΔTm at 1000 µM (°C): 0.62
- Compound: "Cc1csc(C(N)=O)c1 [compound 134, 4‐methylthiophene‐2‐carboxamide]"
  ΔTm at 1000 µM (°C): 0.61
- Compound: "O=C(O)c1ccc(-c2ccccn2)s1"
  ΔTm at 1000 µM (°C): 0.91
- Compound: "OCc1ccccc1-n1cccc1 [compound 371, [2‐(1H‐pyrrol‐1‐yl)phenyl]methanol]"
  ΔTm at 1000 µM (°C): 0.36
- Compound: "NCc1ccc(-n2cccn2)cc1"
  ΔTm at 1000 µM (°C): 0.19
- Compound: "NC(=O)c1ccc(F)c(Cl)c1 [compound 380, 3‐chloro‐4‐fluorobenzamide]"
  ΔTm at 1000 µM (°C): 0.31
- Compound: "OCc1ccc2[nH]cnc2c1"
  ΔTm at 1000 µM (°C): 0.15
- Compound: "O=C(O)c1ccco1"
  ΔTm at 1000 µM (°C): 0.17
- Compound: "Cc1nc(C(N)=S)cs1 [compound 252, 2‐methyl‐1,3‐thiazole‐4‐carbothioamide]"
  ΔTm at 1000 µM (°C): 0.7
- Compound: "N#Cc1ccccc1Oc1ccccc1"
  ΔTm at 1000 µM (°C): 0.24
- Compound: "NC(=O)c1ccccc1C(F)(F)F [compound 532, 2‐(trifluoromethyl)benzamide]"
  ΔTm at 1000 µM (°C): 0.43
- Compound: "Nc1cccc(Cn2ccnc2)c1"
  ΔTm at 1000 µM (°C): 0.19
- Compound: "Nc1cccc(C(=O)c2ccccc2)c1"
  ΔTm at 1000 µM (°C): 0.21
- Compound: "CC1CNC(C)CN1 (centres unmarked)"
  ΔTm at 1000 µM (°C): 0.18
- Compound: "COC(=O)c1ccccc1C [compound 183, methyl 2‐methylbenzoate]"
  ΔTm at 1000 µM (°C): 0.14
- Compound: "O=C(O)Cc1cc(F)cc(F)c1"
  ΔTm at 1000 µM (°C): 0.13
- Compound: "CCOC(=O)Cc1csc(C)n1"
  ΔTm at 1000 µM (°C): 0.99
- Compound: "Cc1nnc(N)s1"
  ΔTm at 1000 µM (°C): 0.31
- Compound: "NC(=S)c1ccccc1 [compound 123, benzene‐1‐carbothioamide]"
  ΔTm at 1000 µM (°C): 0.42
- Compound: "Nc1ccc2occc2c1"
  ΔTm at 1000 µM (°C): 0.78
- Compound: "ON=C1CCCCCN1"
  ΔTm at 1000 µM (°C): 0.52
- Compound: "OCc1nc2ccccc2[nH]1"
  ΔTm at 1000 µM (°C): 0.04
- Compound: "Nc1ccc2c(c1)OCCO2 [compound 193, 2,3‐dihydro‐1,4‐benzodioxin‐6‐amine]"
  ΔTm at 1000 µM (°C): 0.4
- Compound: "OCc1cc2ccccc2s1"
  ΔTm at 1000 µM (°C): 0.01
- Compound: "OCc1ccc(N2CCOCC2)cc1"
  ΔTm at 1000 µM (°C): 0.17

The origin of these recorded values is paper PMC3199943.
